Species: Rattus norvegicus
Type: toxicity, organism-based, Sprague-Dawley
assay_setup: in vivo, po, 40 mg/kg, 24 h, tissue Blood, route oral GAVAGE, dose level Low, time 1 day, […]
Description: DrugMatrix - Regimen: Single
readout_type: ABSOLUTE BASOPHIL (cells/µL)

>>> data_value("C=CCN [ALLYLAMINE]")
26.7

###

Species on record: Rattus norvegicus
experimental_details: DrugMatrix - Regimen: Daily Repeat
Type: toxicity, organism-based, Sprague-Dawley
Design: regimen Daily Repeat, gender Male, age 6-8 weeks
assay_setup: in vivo, po, 10 mg/kg, 72 h, tissue Blood, route oral GAVAGE, dose level Low, time 3 day, vehicle .5 % CMC
readout_type: NEUTROPHIL (%)

>>> data_value("O=C1CN=C(c2ccccc2)c2cc([N+](=O)[O-])ccc2N1 [NITRAZEPAM]")
9
>>> data_value("CC(=O)O[C@]1(C(C)=O)CC[C@H]2[C@@H]3C=C(Cl)C4=CC(=O)CC[C@]4(C)[C@H]3CC[C@@]21C [CHLORMADINONE ACETATE]")
4.33
>>> data_value("NS(=O)(=O)c1cc2c(cc1Cl)NCNS2(=O)=O [HYDROCHLOROTHIAZIDE]")
21.33
>>> data_value("COc1c(C)c2c(c(O)c1C/C=C(\\C)CCC(=O)OCCN1CCOCC1)C(=O)OC2 [MYCOPHENOLATE MOFETIL]")
7

Where do these numbers come from? They come from ChEMBL document CHEMBL3885881.
